- study target: KRas G12S (Homo sapiens, UniProt P01116, G12S)
- Construct: Biotinylated KRas (corresponding to amino acids 1-169, produced at Accelegan Inc.); biotin (biotinylated); purchased Accelegan Inc
- Sequence (P01116 1-169 isoform P01116-2 G12S): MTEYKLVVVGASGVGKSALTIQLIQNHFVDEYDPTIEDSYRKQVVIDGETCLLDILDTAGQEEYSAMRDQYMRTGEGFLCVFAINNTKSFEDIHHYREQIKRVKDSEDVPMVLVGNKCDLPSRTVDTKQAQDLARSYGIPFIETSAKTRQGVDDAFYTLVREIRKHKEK
- assay: KRas binding assay, TR-FRET displacement of Cy5 labelled tracer
- applied conditions: 60-minute incubation at room temperature, 1% DMSO, pH 7.5
metric name: IC50 (nM)

(P) CCc1c(F)ccc2cc(O)cc(-c3ncc4c(N5CCC(COC)(C(=O)n6ccc(C)n6)CC5)nc(OC[C@@]56CCCN5C[C@H](F)C6)nc4c3F)c12 [Example 89]
(Q) CCc1c(F)ccc2cc(O)cc(-c3ncc4c(N5CCC(C(=O)N(C)C(=O)COC)CC5)nc(OC[C@@]56CCCN5C[C@H](F)C6)nc4c3F)c12 [Example 209]
(R) N#Cc1cccc(OC(=O)C2CCN(c3nc(OCC45CCCN4CCC5)nc4c(F)c(-c5cccc6cccc(F)c56)ncc34)CC2)c1 [Example 28]
(S) Cc1ccn(C(=O)C23CCC(CN(c4nc(OC[C@@]56CCCN5C[C@H](F)C6)nc5c(F)c(-c6ccc(F)c7sc(N)c(C#N)c67)c(Cl)cc45)C2)C3)n1 (stereo partly drawn) [Example 183]
(T) Cc1ccn(C(=O)CC2CN(c3nc(OC[C@@]45CCCN4C[C@H](F)C5)nc4c(F)c(-c5ccc(F)c6sc(N)c(C#N)c56)c(Cl)cc34)C2)n1 [Example 138]
Q. Method: rank(items above, key=IC50, ascending=True) Reply format: the labels, ordered as requested.
A. S, T, Q, P, R
(S: 3 nM, T: 6 nM, Q: 165 nM, P: 6630 nM, R: 74700 nM)

---

- study target: KRas G12S (Homo sapiens, UniProt P01116, G12S)
- Construct: Biotinylated KRas (corresponding to amino acids 1-169, produced at Accelegan Inc.); biotin (biotinylated); purchased Accelegan Inc
- assay: KRas binding assay, TR-FRET displacement of Cy5 labelled tracer
- applied conditions: 60-minute incubation at room temperature, 1% DMSO, pH 7.5
metric name: IC50 (nM)

O=C[C@@H]1[C@@H]2CC[C@H]1CN(c1nc(OCC34CCCN3CCC4)nc3c(F)c(-c4cccc5cccc(F)c45)ncc13)C2; 15300
Cc1ccn(C(=O)C2CCCN(c3nc(OC[C@@]45CCCN4C[C@H](F)C5)nc4c(F)c(-c5nc(N)ccc5C)c(Cl)cc34)CC2)n1 (stereo partly drawn); 3410
CN(CCCC(=O)Oc1ccccc1)c1nc(OC[C@@]23CCCN2C[C@H](F)C3)nc2c(F)c(-c3ccc(F)c4sc(N)c(C#N)c34)c(Cl)cc12; 13
CCc1c(F)ccc2cc(O)cc(-c3ncc4c(N5CC(CC(=O)N(C)C(C)=O)C5)nc(OC[C@@]56CCCN5C[C@H](F)C6)nc4c3F)c12; 68
CC(=O)N(C)C(=O)C1CCCN(c2nc(OC[C@@]34CCCN3C[C@H](F)C4)nc3c(F)c(-c4ccc(F)c5sc(N)c(C#N)c45)c(Cl)cc23)CC1 (stereo partly drawn); 11

(P) CN(CCNC(=O)n1nccn1)c1nc(OC[C@@]23CCCN2C[C@H](F)C3)nc2c(F)c(-c3ccc(F)c4sc(N)c(C#N)c34)c(Cl)cc12
(Q) CN(CCNC(=O)n1cncn1)c1nc(OC[C@@]23CCCN2C[C@H](F)C3)nc2c(F)c(-c3ccc(F)c4sc(N)c(C#N)c34)c(Cl)cc12
Q. Of the two listed items, which has the higher IC50? First: P Second: Q The response must carry the label of the picked entry.
A. Q
(Q: 8 nM, P: 5 nM)
